All values here come from PubChem BioAssay (NCI).

tested on: OVCAR-8 ovarian; test: NCI-60 one-dose screen, 48 h (100 = growth as untreated, 0 = no growth, -100 = all killed); conditions: 10 µM
Compounds without any hit were thinned out: in the full panel of roughly 83,000, 20% have a hit.
growth for assorted molecules
Reply numerically in %, unit not repeated.

{"columns": ["chemical-smiles", "meas-value"],
 "data": [
  ["CCN(Cc1ccccc1)c1ccc(/C=C2\\COc3ccccc3C2=O)cc1", 95.3],
  ["O=C(/C=C/c1cccc(Oc2ccc(Cl)cc2)c1)c1ccccc1", 91.8]
]}

Okay, next one:
API: value(readout=growth, system=OVCAR-8 ovarian) for record CC(=O)/C=C/c1ccc(N(C)Cc2ccc(C(C)(C)C)cc2)cc1
92.4

###

Measured growth, listed per entry.
test system: SK-MEL-5 melanoma; assay: NCI-60 one-dose screen, 48 h (100 = growth as untreated, 0 = no growth, -100 = all killed); settings: 10 µM unless noted
Compounds without any hit were thinned out: in the full panel of roughly 83,000, 20% have a hit.
The answer is to be given in %; state only the numeric part.

Answered cases to consult:
{"columns": ["molecule", "meas-value"],
 "data": [
  ["COc1ccc(/C=N/C2=C(C#N)C(c3ccccc3)c3c(ccc4ccccc34)O2)cc1 (stereo not given)", 20.8],
  ["CCOC(=O)n1cc(-c2nonc2-c2cn(C)c3ccc(OC)cc23)c2cc(F)ccc21", 92],
  ["COc1ccc2c(c1)c(-c1nc(-c3c[nH]c4c(Cl)nccc34)cs1)cn2C", 45.4],
  ["CC1=C2[C@@H](CC1)[C@]1(C)O[C@@](C3CC3)(C[C@H]1OC(=O)CO)[C@H]2OC(=O)/C=C/c1ccccc1", 92.9]
]}

Proceed to the following item.
Bench note: what growth did Cc1ccc(-c2nc(SCC(=O)c3ccc(C#N)cc3)[nH]c(=O)c2C#N)cc1 show?
114

###

tested on: IGROV1 ovarian; assay: NCI-60 one-dose screen, 48 h; settings: 100 µM
Compounds without any hit were thinned out: in the full panel of roughly 83,000, 20% have a hit. Active and inactive are the calls of the source. Rule for the calls: active = growth percent below 10; inactive = the rest.
# valid calls are true (active), false (inactive); nothing else

{"columns": ["chemical-smiles", "class-assignment"],
 "data": [
  ["COc1ccc(C(=O)/C=C/c2ccc(OCc3cccc(C(F)(F)F)c3)c(OC)c2)cc1OC", "true"]
]}

Could you check what this test reported for CC(=O)/C=C/c1ccc(N(CCO)Cc2ccc(C(C)(C)C)cc2)cc1 ?
true

Assay outcome for CC(=O)/C=C/c1ccc(N(C)Cc2ccc(C(C)(C)C)cc2)cc1 : what was it?
true

# fetch the recorded call for CC(=O)/C=C/c1ccc(OCc2ccc(Cl)cc2)cc1 here
false

What is the recorded call for this molecule in the test? CC(=O)/C=C/c1ccc(OCc2ccc(C(C)(C)C)cc2)cc1
false

// return assay outcome for O=C(/C=C/c1cccc(Oc2ccc(Cl)cc2)c1)c1ccccc1
true

Status in this test for COc1ccc(C(=O)/C=C/c2ccc(OCc3ccc(Cl)cc3)cc2)cc1OC ?
true

###

The molecules listed here are annotated with their growth.
tested on: HOP-92 NSCLC; assay: NCI-60 one-dose screen, 48 h (100 = growth as untreated, 0 = no growth, -100 = all killed); details: 10 µM unless noted
This is part of a sample that, as a whole, favours compounds with a hit. Of some 83,000 tested, about 20% had one in any assay.
Write the value in % as a bare number.

Which growth reading was recorded for the molecule Clc1nccc2c(-c3csc(-c4c[nH]c5ccc(Br)cc45)n3)c[nH]c12 ?
6.84

Consider the molecule shown here: CC(=O)N1N=C(c2ccc(Nc3nc(Nc4ccc(F)cc4)nc(Nc4ccc(F)cc4)n3)cc2)CC1c1ccccc1 (stereo not given) What is its recorded growth?
58.3

Reported growth for CC/C=C\C/C=C\C[C@H](O)C/C=C1/C(=O)C=C[C@@H]1C/C=C\CCCC(=O)OC : what is it?
-23
